Numbers sourced from patent US11173151B2.

molecular target: human V1a receptor (Homo sapiens); construct: expressed in transfected cells; host or cells: CHO K1 (ATCC), also stably transfected with a modified aequorin; test: Cellular in vitro assay for determining vasopressin receptor activity, V1a receptor cell line (CHO, aequorin luminescence); assay type: cell-based; conditions: selectivity ratio IC50 hV2 / IC50 hV1a
Sequence (P37288 whole entry): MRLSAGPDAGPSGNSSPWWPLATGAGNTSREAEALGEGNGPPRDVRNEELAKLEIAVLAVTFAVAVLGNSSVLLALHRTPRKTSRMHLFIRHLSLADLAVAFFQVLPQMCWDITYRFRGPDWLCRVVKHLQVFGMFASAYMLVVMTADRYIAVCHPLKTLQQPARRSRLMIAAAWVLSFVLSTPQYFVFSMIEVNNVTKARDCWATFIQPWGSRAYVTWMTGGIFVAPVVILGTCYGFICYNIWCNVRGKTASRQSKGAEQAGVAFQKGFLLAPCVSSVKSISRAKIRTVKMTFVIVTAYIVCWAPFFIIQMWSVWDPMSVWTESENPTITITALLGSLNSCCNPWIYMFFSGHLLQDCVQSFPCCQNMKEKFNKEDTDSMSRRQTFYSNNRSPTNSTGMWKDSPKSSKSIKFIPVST
outcome_measure: ratio IC50 hV2/hV1a

a: CC1CCCCC1NC(=O)c1ccccc1-n1cnc(Cn2nc(-c3ccc(Cl)cc3)n(C[C@H](O)C(F)(F)F)c2=O)n1 (mixture of isomers)
b: CC1(C(=O)Nc2ncccc2-n2cnc(Cn3nc(-c4ccc(Cl)cc4)n(C[C@H](O)C(F)(F)F)c3=O)n2)CCCO1 (stereo partly shown)
Which is greater in ratio IC50 hV2/hV1a, the first item a or the second item b ? Use the label to indicate which entry you chose.
a
(a: 91.5, b: 7.6)

---

molecular target: human V2 receptor (Homo sapiens, UniProt P30518); construct: expressed in transfected cells; host or cells: CHO K1 (ATCC) expressing firefly luciferase under a CRE-responsive promoter; assay: Cellular in vitro assay for determining vasopressin receptor activity, V2 receptor cell line (CHO, CRE-luciferase); assay type: cell-based; conditions: CHO cell line transfected with human V2 receptor; [Arg8]-vasopressin at EC50 concentration, 3 hours; read-out: IC50 hV2
Sequence (P30518 whole entry): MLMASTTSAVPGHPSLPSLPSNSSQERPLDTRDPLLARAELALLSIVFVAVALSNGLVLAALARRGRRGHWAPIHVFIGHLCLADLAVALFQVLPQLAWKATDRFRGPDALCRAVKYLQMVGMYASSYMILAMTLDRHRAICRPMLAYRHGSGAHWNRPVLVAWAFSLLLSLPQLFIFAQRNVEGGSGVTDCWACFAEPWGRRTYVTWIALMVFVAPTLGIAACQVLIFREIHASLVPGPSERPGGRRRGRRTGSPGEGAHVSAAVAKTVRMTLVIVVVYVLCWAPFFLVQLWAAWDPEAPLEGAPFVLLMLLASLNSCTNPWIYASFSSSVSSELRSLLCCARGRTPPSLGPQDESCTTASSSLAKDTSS
outcome_measure: IC50 (µM)

Solved cases below.
CC1CCCCC1NC(=O)c1ccccc1-n1cnc(Cn2nc(-c3ccc(Cl)cc3)n(C[C@H](O)C(F)(F)F)c2=O)n1 (mixture of isomers) [Example 319] :: 0.325
Cc1c(F)cccc1NC(=O)c1ccccc1-n1cnc(Cn2nc(-c3ccc(Cl)cc3)n(C[C@H](O)C(F)(F)F)c2=O)n1 [Example 306] :: 0.123
CCc1cc(C(=O)Nc2ncccc2-n2cnc(Cn3nc(-c4ccc(Cl)cc4)n(C[C@H](O)C(F)(F)F)c3=O)n2)no1 [Example 139] :: 0.465
O=C(Nc1cccnc1-n1cnc(Cn2nc(-c3ccc(Cl)cc3)n(C[C@H](O)C(F)(F)F)c2=O)n1)C1(F)CC1 [Example 57] :: 0.503
CC(C)=CCNC(=O)c1ccccc1-n1cnc(Cn2nc(-c3ccc(Cl)cc3)n(C[C@H](O)C(F)(F)F)c2=O)n1 [Example 245] :: 0.81

1: CC(=O)Nc1ccncc1-n1cnc(Cn2nc(-c3ccc(Cl)cc3)n(C[C@H](O)C(F)(F)F)c2=O)n1 [Example 28]
2: Cc1n[nH]c(C)c1C(=O)Nc1ncccc1-n1cnc(Cn2nc(-c3ccc(Cl)cc3)n(C[C@H](O)C(F)(F)F)c2=O)n1 [Example 124]
Out of 1 and 2 , name the one with the higher IC50. Respond using the label that marks the chosen record.
2
(2: 3.8 µM, 1: 0.395 µM)

---

target: human V2 receptor (Homo sapiens, UniProt P30518); construct: expressed in transfected cells; host or cells: CHO K1 (ATCC) expressing firefly luciferase under a CRE-responsive promoter; assay: Cellular in vitro assay for determining vasopressin receptor activity, V2 receptor cell line (CHO, CRE-luciferase); assay type: cell-based; conditions: CHO cell line transfected with human V2 receptor; [Arg8]-vasopressin at EC50 concentration, 3 hours; read-out: IC50 hV2
outcome_measure: IC50 (µM)

Known IC50 results, listed for orientation:
O=C(NCCN1CCNC1=O)c1ccccc1-n1cnc(Cn2nc(-c3ccc(Cl)cc3)n(C[C@H](O)C(F)(F)F)c2=O)n1 [Example 185] :: 1.8
COC[C@H]1CCCN1C(=O)c1ccccc1-n1cnc(Cn2nc(-c3ccc(Cl)cc3)n(C[C@H](O)C(F)(F)F)c2=O)n1 [Example 335] :: 1.1
O=C(c1ccccc1-n1cnc(Cn2nc(-c3ccc(Cl)cc3)n(C[C@H](O)C(F)(F)F)c2=O)n1)N1CCCCC1 [Example 338] :: 0.96
O=C(c1ccccc1-n1cnc(Cn2nc(-c3ccc(Cl)cc3)n(C[C@H](O)C(F)(F)F)c2=O)n1)N1CCCCO1 [Example 278] :: 0.405

1: O=C(NCCN1CCCC1=O)c1ccccc1-n1cnc(Cn2nc(-c3ccc(Cl)cc3)n(C[C@H](O)C(F)(F)F)c2=O)n1 [Example 177]
2: O=C(Nc1cncc(F)c1)c1ccccc1-n1cnc(Cn2nc(-c3ccc(Cl)cc3)n(C[C@H](O)C(F)(F)F)c2=O)n1 [Example 255]
Out of 1 and 2 , name the one with the higher IC50. // return label of chosen record
1
